B1: PBXIP1 (parent)
chain: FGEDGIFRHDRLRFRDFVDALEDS

# Variants of: B1
# test_details: protein stability index of a GFP-peptide fusion (GPS, HEK-293T) (PSI 1-6); higher = more stable;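 also: lentivirally expressed fusions sorted by FACS into six bins by GFP to DsRed ratio, PSI derived from sequencing read proportions per bin multiplied by bin number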
# condition: c terminus: a fixed tail appended
reported_endpoint: protein stability index
Give the value as a plain number.

Lab book: protein stability index of R15F noted as 2.68

Lab book: protein stability index of R13W noted as 1.99

Lab book: protein stability index of R15S noted as 2.54

***
Lab book: protein stability index of D19H noted as 2.9

Lab book: protein stability index of S24T noted as 2.85

Lab book: protein stability index of R11L noted as 2.33

meta.source: the supplement of paper PMC10567573
